# credit: the RNAGym collection of RNA variant scans (doi:10.1126/science.aae0568)

B1: tRNA (parent)
chain: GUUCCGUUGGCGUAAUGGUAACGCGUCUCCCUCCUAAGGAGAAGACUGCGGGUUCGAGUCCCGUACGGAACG

Variants of: B1
assayText: yeast fitness relative to wild type (ratio to wild type); higher = fitter; tRNA-Arg(CCU), competitive growth, 37 C, YPD
Variants at the floor of the assay were thinned out.

| variantAnnotation | yeast fitness |
| --- | --- |
| C34G A37C C60G A65U | ≤ 0.5 |
| C4G U16C A36U | ≤ 0.5 |
| C49A C60G A70C | ≤ 0.5 |
| G18A C55A C62G | ≤ 0.5 |
| C11U A14U U16C | ≤ 0.5 |
| G10A C29U C30G C34A U53C | ≤ 0.5 |
| U7G G25C | 0.958 |
| U2C C5U C11G C34U A36G C55G A57U G67A | ≤ 0.5 |
| U2G C24A C31G | ≤ 0.5 |
| C27U A57G C60U | ≤ 0.5 |
| A21C C24U U32A C62G | 0.539 |
| C4U C30A U53C A70C | ≤ 0.5 |
| G18A C30U A45C G52C | ≤ 0.5 |
| C27U G48A A65U | 0.714 |
| C29U C30A C61G | ≤ 0.5 |
| G10C C24U C34G A65C | ≤ 0.5 |
| G12C A43C | 0.825 |
| A42C U54C | 0.796 |
| U13G C29U C33U G63A | ≤ 0.5 |
| A42G U47G G50C | 0.608 |
| U28C C33G G38A | ≤ 0.5 |
| G25A C34G G67A | ≤ 0.5 |
| G18C C22G G38A | ≤ 0.5 |
| C5A C22A G50C G58A A69C | 0.607 |
| A40C G48C A69C | 0.57 |
| C30A A37G C46U A57C | ≤ 0.5 |
| A14G C61G | 0.721 |
| C24A A43C A69U | ≤ 0.5 |
| A40U C61G G68C A70G | ≤ 0.5 |
| A14U A37C C46U C61G | ≤ 0.5 |
| G18C C62A C66A | ≤ 0.5 |
| U13G U32A C33A | ≤ 0.5 |
| C29U G39U | 1.07 |
| A21G C22A G63C G67A | ≤ 0.5 |
| C29A G44C | 0.778 |
| C4U A40U G68U | 0.708 |
| U2G C22U U32C G50C | 0.658 |
